Here the recorded Percent Effect is given for each entry.
system: Mycobacterium tuberculosis; assay: Cornell - Phenotypic assay to identify agents that inhibit growth of Mycobacterium tuberculosis; format: functional; design: scale not given: direction of the effect not stated beside the values; conditions: 10 mM as filed; unlikely as a test dose
In all, about 53,000 compounds went through this assay and about 900 (1.7%) showed an effect of 50% or more. The sample holds strong results, similar compounds and a random draw of the others, so the mix is not that of the screen.
Answer with a number only, understood to be in %.

Example results:
[[record]]
compound = "Cc1cc(C)nc(N2CCC(c3noc(C)n3)CC2)n1"
observed_property = "Percent Effect"
result = -1.548

[[record]]
compound = "CN1CC(=O)N(c2ccsc2)CC12CCN(S(=O)(=O)C1CC1)C2.O=C(O)C(F)(F)F (stereo not given)"
observed_property = "Percent Effect"
result = 6.764

[[record]]
compound = "O=C(O)C(F)(F)F.c1cnc(N2CCC3(CC2)CN(CC2CC2)c2ccccc23)nc1"
observed_property = "Percent Effect"
result = 32.03

[[record]]
compound = "O=C(NCCc1cc(N2CCOCC2)nc(N2CCCC2)n1)C1CC1"
observed_property = "Percent Effect"
result = 50.32

[[record]]
compound = "CS(=O)(=O)N1CCC2(CC1)CN(CC1CCOC1)c1ccccc12.O=C(O)C(F)(F)F (stereo not given)"
observed_property = "Percent Effect"
result = 24.53

[[record]]
compound = "NCCc1n[nH]c(=O)n1-c1cccc(Cl)c1Cl"
observed_property = "Percent Effect"
result = -33.73

[[record]]
compound = "Cc1cnc(N2CCC3(CC(=O)N(Cc4csc(C)n4)C3)C2)nc1.O=C(O)C(F)(F)F (stereo not given)"
observed_property = "Percent Effect"
result = 10.64

[[record]]
compound = "CCS(=O)(=O)N1CCC2(CC1)CN(CC1CCOC1)c1ccccc12.O=C(O)C(F)(F)F (stereo not given)"
observed_property = "Percent Effect"
result = -6.416

[[record]]
compound = "O=C1C(CS(=O)(=O)Nc2ccc(Cl)cc2)=NC(=O)n2cccc21"
observed_property = "Percent Effect"
result = 11.65


Request: Determine its reported Percent Effect: c1cc2n(n1)CC(CNCc1ccc(OC3CCCC3)nc1)CN2 (stereo not given)
Response: -62.66

* * *

test system: Mycobacterium tuberculosis; assay: Cornell - Phenotypic assay to identify agents that inhibit growth of Mycobacterium tuberculosis; type: functional; set-up: scale not given: direction of the effect not stated beside the values; conditions: 10 mM as filed; unlikely as a test dose
About 900 (1.7%) of roughly 53,000 compounds showed an effect of 50% or more. Many of the other results were omitted from the sample, so strong results are more common in it than they were.
OBSERVED PROPERTY: Percent Effect (%)
// units = %; emit number, no label

[[record]]
compound = "COCC(C)NC(=O)CCCn1cnc2ccccc2c1=O (centres undefined)"
quantity_unit = "%"
result = 7.524


Request: For the compound CC(O)CNC(=O)c1nc(Cc2c(Cl)cccc2Cl)no1 (centres undefined) , give its measured Percent Effect value.
Response: 19.28

Request: Give the value of Percent Effect reported for the following: CCc1cc(=O)[nH]c2nnc(SCC(=O)OC)n12
Response: -7.031

Request: Note Percent Effect for the compound shown: COc1cccc(OC2CN(C(=O)c3ccnc(OC)c3)C2)c1
Response: 17.3

Request: Entry CCn1c(C2CCN(C(=O)c3cc(C4CC4)on3)CC2)nn(C)c1=O needs its Percent Effect filled in; supply it.
Response: 4.422

Request: Consider the compound CN1C(=O)C2(CC(=O)Nc3[nH]ncc32)c2cc(Cl)ccc21 (centres undefined) and give its recorded Percent Effect.
Response: 9.602

Request: For the compound O=C(O)c1ccc(S(=O)(=O)Nc2cnn(CC(F)(F)F)c2)cc1 , give its measured Percent Effect value.
Response: 41.5

Request: # return recorded Percent Effect for entry CCSc1nc2ccccc2c(=O)n1OCC(=O)OC
Response: 74.42

Request: Supply recorded Percent Effect for COC(=O)COn1c(SCC(=O)OC)nc2ccccc2c1=O here.
Response: 102.5

Where these numbers come from: ChEMBL document CHEMBL3988442
